B1: EEHEE_rd3_0130 (parent)
chain: TKIIVNGKTFTAPTEEEAQKIAEKLAKKAGLTVHKKNGTFELK

Variants of: B1
Assay: folding stability dG (cDNA display proteolysis); higher = more stable
Conditions: PBS, room temperature
We begin with a simple list: items and their reported folding stability dG.
Readout Label: folding stability dG (kJ/mol)

A18Y
-3.61
V5T
-0.824
I21C
6.33
K36E
3.14
H34R
3.01
I3F
0.146
A29V
2.07
L42R
-0.339
N37Q
1.18
K35E
0.126
T32R
2.35
A12M
4.28
I21P
-3.18
V33W
2.48
K2V
2.1
K2R
3.32
L31R
-1.77
E15Q
2.41
T11Y
5.95
Q19H
2.54
E16G
2.32
A18M
-1.55
